Cited source for all entries: the supplement of paper PMC13380429

tested on: Caco-2; assay: cell viability relative to DMSO; higher = less toxic; conditions: 72 h; 100 nM
Overview of reported cell viability across a group of molecules:

- molecule: "CNC(=O)c1c(I)c(C(=O)NCC(=O)Nc2c(I)c(C(=O)O)c(I)c(C(=O)NCCO)c2I)c(I)c(N(C)C(C)=O)c1I"
  cell viability: "106%"
- molecule: "O=c1c2ccccc2oc2ccccc12"
  cell viability: "101%"
- molecule: "CCOC(=O)CSCCC1NC(C(=O)O)CS1 (stereo not given)"
  cell viability: "97.4%"
- molecule: "Clc1cccc(N2CCNCC2)c1"
  cell viability: "96.1%"
- molecule: "CCC1(CC)C(=O)C=CNC1=O"
  cell viability: "93.4%"

----------
system: Vero E6; experiment: cell viability relative to DMSO; higher = less toxic; details: 72 h; 10 nM
Overview of reported cell viability across a group of compounds:

- compound: "CCN(CC)CCCCN1c2ccccc2Oc2ccc(Cl)cc21"
  cell viability, %: 97.4
- compound: "COc1cc(C[C@@H](CO)[C@H](CO)Cc2ccc(O)c(OC)c2)ccc1O [secoisolariciresinol-(-)]"
  cell viability, %: 110
- compound: "Clc1ccc(N2CCN(Cc3c[nH]c4ncccc34)CC2)cc1"
  cell viability, %: 102
- compound: "Cc1ccc2c(c1)[C@]13CCCC[C@@H]1[C@H](C2)N(C)CC3"
  cell viability, %: 103
- compound: "O=C1NCN(c2ccccc2)C12CCN(CC1COc3ccccc3O1)CC2 (centres undefined)"
  cell viability, %: 99.8
- compound: "CCCN(CCC)C1Cc2cc(OC)c(OC)cc2C1"
  cell viability, %: 103
- compound: "Nc1nc(Cl)nc2c1ncn2[C@@H]1O[C@H](CO)[C@@H](O)[C@H]1O"
  cell viability, %: 102
- compound: "O=C(N[C@H](Cc1ccccc1)C(=O)O)c1sc2cc(F)ccc2c1Cl"
  cell viability, %: 103
- compound: "CN(C)CCOC(=O)C(c1ccccc1)C1(O)CCCC1 (centres undefined) [cyclopentolate]"
  cell viability, %: 103

----------
Overview of reported cell viability across a group of compounds:
system: Calu-3; experiment: cell viability relative to DMSO; higher = less toxic; settings: 72 h; 1 nM
endpoint-label: cell viability (%)

- compound: "COC(=O)C1=CO[C@@H](O[C@@H]2O[C@H](CO)[C@@H](O)[C@H](O)[C@H]2O)[C@@H]2C(CO)=CC[C@H]12 [geniposide]"
  quantity-unit: "%"
  observed-measurement: 84.8
- compound: "Cc1nc(C)c(Cl)c(O)c1Cl"
  quantity-unit: "%"
  observed-measurement: 105
- compound: "OC[C@H]1O[C@H]([S-])[C@H](O)[C@@H](O)[C@@H]1O.[Au+]"
  quantity-unit: "%"
  observed-measurement: 101
- compound: "CC(C)(C)NC(=O)[C@@H](c1cccnc1)N(C(=O)c1ccco1)c1ccc(C(C)(C)C)cc1"
  quantity-unit: "%"
  observed-measurement: 93.6
- compound: "OC[C@H]1O[C@H](O[C@]2(CCl)O[C@H](CCl)[C@@H](O)[C@@H]2O)[C@H](O)[C@@H](O)[C@H]1Cl"
  quantity-unit: "%"
  observed-measurement: 99.6
- compound: "CN1[C@@H]2CC[C@H]1C[C@@H](OC(c1ccccc1)c1ccccc1)C2 [benztropine-mesylate]"
  quantity-unit: "%"
  observed-measurement: 101
- compound: "Cc1cc(/C=C2\\SC(=O)N(c3ccccc3)C2=O)c(C)n1-c1cccnc1"
  quantity-unit: "%"
  observed-measurement: 101
- compound: "CC[C@@]1(O)C(=O)OCc2c1cc1n(c2=O)Cc2cc3ccccc3nc2-1"
  quantity-unit: "%"
  observed-measurement: 97.9
- compound: "COC(=O)/C=C/c1cccc(N(Cc2ccc(-c3ccc(N(C)C)cc3)cc2)C(=O)C2CCCCC2)c1"
  quantity-unit: "%"
  observed-measurement: 110
- compound: "Clc1cccc(N2CCNCC2)c1"
  quantity-unit: "%"
  observed-measurement: 91.4

----------
test system: Calu-3; test: cell viability relative to DMSO; higher = less toxic; settings: 72 h; 100 nM

- molecule: "CCCCCCN(CCCCCC)C(=O)Cc1c(-c2ccc(Cl)cc2)[nH]c2ccc(Cl)cc12 [FGIN-1-43]"
  cell viability [%]: 99.4
- molecule: "CN1CCN(CC(=O)N2c3ccccc3C(=O)Nc3cccnc32)CC1 [pirenzepine]"
  cell viability [%]: 104
- molecule: "CCOC(=O)c1ccccc1OC(N)=O [ethyl-2-(carbamoyloxy)benzoate]"
  cell viability [%]: 98
- molecule: "Clc1ccc(C(Cn2ccnc2)OCc2csc3c(Cl)cccc23)c(Cl)c1 (configuration not stated) [sertaconazole]"
  cell viability [%]: 106
- molecule: "CC1(C)S[C@@H]2[C@H](NC(=O)[C@H](NC(=O)N3CCN(S(C)(=O)=O)C3=O)c3ccccc3)C(=O)N2[C@H]1C(=O)O [mezlocillin]"
  cell viability [%]: 93.1
- molecule: "Cn1cc(C(=O)OCC2CCN(CCNS(C)(=O)=O)CC2)c2ccccc21"
  cell viability [%]: 100
- molecule: "CC(=O)N[C@H]1[C@@H](OC(C)C)O[C@H](COC(C)=O)[C@@H](OC(C)=O)[C@@H]1OC(C)=O [C34]"
  cell viability [%]: 103

----------
system: Caco-2; experiment: cell viability relative to DMSO; higher = less toxic; settings: 72 h; 1000 nM
Overview of reported cell viability across a group of compounds:
endpoint-label: cell viability (%)

- compound: "O=C(OCC(COC(=O)c1cccnc1)(COC(=O)c1cccnc1)COC(=O)c1cccnc1)c1cccnc1"
  observed-measurement: 93.3
- compound: "Nc1cccc2c1C(=O)N(C1CCC(=O)NC1=O)C2=O (centres undefined) [pomalidomide]"
  observed-measurement: 95
- compound: "Cc1c(-c2ccc(-c3ccccc3F)cc2)nc2ccc(F)cc2c1C(=O)O"
  observed-measurement: 105
- compound: "NC(=O)NC1NC(=O)NC1=O (centres undefined)"
  observed-measurement: 100

----------
test system: U2OS; test: cell viability relative to DMSO; higher = less toxic; conditions: 72 h; 1000 nM

- molecule: "CC(=O)N(OCc1ccccc1)[C@@H]1c2cc(C#N)ccc2OC(C)(C)[C@H]1O"
  target-under-test: "U2OS"
  cell viability: "94.5%"
- molecule: "CCc1nc2c(C)nc(C)cc2n1-c1ccc(CCNC(=O)NS(=O)(=O)c2ccc(C)cc2)cc1"
  target-under-test: "U2OS"
  cell viability: "99.3%"
- molecule: "O=c1[nH]c(=O)c2ccccc2o1"
  target-under-test: "U2OS"
  cell viability: "102%"
- molecule: "CC1(C)S[C@@H]2[C@H](NC(=O)[C@H](NC(=O)N3CCN(S(C)(=O)=O)C3=O)c3ccccc3)C(=O)N2[C@H]1C(=O)O"
  target-under-test: "U2OS"
  cell viability: "103%"
- molecule: "CCC(CC)(NC(=O)C(C)C)C(=O)N[C@@H](CCCNC(=N)N)C(=O)NC1(C(=O)NC(c2ccc(F)cc2)c2ccc(F)cc2)CCCC1"
  target-under-test: "U2OS"
  cell viability: "95.8%"
- molecule: "N[C@@H]1[C@H]2CN(c3nc4c(cc3F)c(=O)c(C(=O)O)cn4-c3ccc(F)cc3F)C[C@@H]12"
  target-under-test: "U2OS"
  cell viability: "105%"
- molecule: "COc1ccc(Nc2nccc(NCCO)n2)cc1"
  target-under-test: "U2OS"
  cell viability: "96.1%"
- molecule: "Cc1ccc(CCCO)c(NCc2ccc3nc(NCCCN4CCOCC4)n(Cc4nc(C)ccc4O)c3c2)c1"
  target-under-test: "U2OS"
  cell viability: "96.5%"
- molecule: "C[C@@H](Nc1cc(F)cc(F)c1)c1cc(C(=O)N(C)C)cc2c(=O)cc(N3CCOCC3)oc12"
  target-under-test: "U2OS"
  cell viability: "87.9%"
- molecule: "O=Cc1ccc(CO)o1"
  target-under-test: "U2OS"
  cell viability: "102%"
- molecule: "CN(Cc1cnc2nc(N)nc(N)c2n1)c1ccc(C(=O)N[C@@H](CCC(=O)O)C(=O)O)cc1 [methotrexate]"
  target-under-test: "U2OS"
  cell viability: "92.1%"

----------
test system: Caco-2; experiment: drug sensitivity score (DSS) for viability; higher = more toxic; extreme values may be limits of the assay; conditions: 72 h
Overview of reported drug sensitivity score across a group of molecules:

- molecule: "O=C1N[C@@H]2[C@@H](O)[C@@H](O)[C@H](O)[C@@H](CO)N2C1=O [kifunensine]"
  drug sensitivity score: 4.8
- molecule: "N=C(N)c1ccc(N2CCN(C3CCN(CC(=O)O)CC3)CC2)cc1"
  drug sensitivity score: 0
- molecule: "O=C(O)CCCc1ccc(N(CCCl)CCCl)cc1 [chlorambucil]"
  drug sensitivity score: 0
- molecule: "O[C@@H](Cc1ccncc1)C(Cl)(Cl)Cl [PETCM]"
  drug sensitivity score: 0
- molecule: "Cc1cc(C)nc(NS(=O)(=O)c2ccc(NC(=S)NC(=O)COc3ccc(Br)cc3Cl)cc2)n1 [ZCL-278]"
  drug sensitivity score: 0
- molecule: "CO/N=C(\\C(=O)N[C@@H]1C(=O)N2C(C(=O)[O-])=C(C[N+]3(C)CCCC3)CS[C@H]12)c1csc(N)n1 [cefepime]"
  drug sensitivity score: 0
- molecule: "Fc1ccc2nc(CCC#Cc3ccccn3)cn2c1 [dipraglurant]"
  drug sensitivity score: 0
- molecule: "CCCN(CCC)C1Cc2cc(OC)c(OC)cc2C1"
  drug sensitivity score: 0
- molecule: "N#CC(c1ccccc1)(c1ccccc1)c1ccccc1Cl [TRAM-39]"
  drug sensitivity score: 0
- molecule: "Cc1c(N)cccc1Cn1ccc(OCCc2cccs2)cc1=O"
  drug sensitivity score: 0
- molecule: "CC[C@H](CC[C@@H](C)[C@H]1CC[C@H]2[C@@H]3CC=C4C[C@@H](O)CC[C@]4(C)[C@H]3CC[C@]12C)C(C)C [beta-Sitosterol]"
  drug sensitivity score: 0
- molecule: "OC[C@H]1O[C@H]([S-])[C@H](O)[C@@H](O)[C@@H]1O.[Au+] [aurothioglucose]"
  drug sensitivity score: 0.5
- molecule: "CCOC(=O)c1ccc(-c2ccc(OC(=O)N(C)Cc3cccc(-c4ccncc4)c3)cc2)cc1 [WWL-113]"
  drug sensitivity score: 0
